# assayedSystem: E. coli dihydrofolate reductase (ecDHFR) (Escherichia coli)
# Sequence (P0ABQ4 whole entry): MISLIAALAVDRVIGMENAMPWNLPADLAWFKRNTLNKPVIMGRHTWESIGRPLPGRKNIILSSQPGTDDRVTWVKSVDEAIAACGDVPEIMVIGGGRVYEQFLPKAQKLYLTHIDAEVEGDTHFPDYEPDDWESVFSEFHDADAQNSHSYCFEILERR
measureName: pKd
pKd field: float, defined as -log10 of concentration (mol/L).

Complete the entry with pKd for NC(=O)c1ccc[n+]([C@@H]2O[C@H](COP(=O)([O-])OP(=O)(O)OC[C@H]3O[C@@H](n4cnc5c(N)ncnc54)[C@H](OP(=O)(O)O)[C@@H]3O)[C@@H](O)[C@H]2O)c1 [NADP^+] 5.05
